target.desc: T1, human CD19 on Raji cells (human, UniProt P15391 20-556)
T1 construct: whole, on cells
T1 sequence (looked up): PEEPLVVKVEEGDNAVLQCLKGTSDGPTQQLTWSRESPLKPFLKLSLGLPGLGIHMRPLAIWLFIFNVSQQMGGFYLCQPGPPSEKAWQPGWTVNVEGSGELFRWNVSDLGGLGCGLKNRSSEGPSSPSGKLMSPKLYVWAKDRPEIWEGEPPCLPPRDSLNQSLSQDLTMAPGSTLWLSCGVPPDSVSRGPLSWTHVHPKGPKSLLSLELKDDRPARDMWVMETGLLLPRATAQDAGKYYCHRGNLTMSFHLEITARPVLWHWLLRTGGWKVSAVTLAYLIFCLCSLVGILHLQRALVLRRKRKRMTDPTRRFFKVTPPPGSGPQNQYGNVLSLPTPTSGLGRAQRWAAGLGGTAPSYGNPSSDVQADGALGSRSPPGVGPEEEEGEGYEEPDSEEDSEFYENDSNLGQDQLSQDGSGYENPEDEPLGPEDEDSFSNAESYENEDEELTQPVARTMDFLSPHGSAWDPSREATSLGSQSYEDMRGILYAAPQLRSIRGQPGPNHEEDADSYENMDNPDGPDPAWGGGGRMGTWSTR
assay.details: FACS on Raji cells
observation.type: EC50 (nM)
I only need the number, in nM, no unit after it.

Recorded EC50, per entry:
- binder: "F4.48.12 (antibody, human IgG1, V domains shown, human-murine chimeric antibody, human IgG1) VH: QMQLKESGPGLVAPSQSLSITCTVSGFSLTDYGVSWIRQPPGKGLEWLGVIWGSGSTFYNSALTSRLSISKDNSKSQVFLKMNSLQTADTAMYFCAKHHYYGGSFAMDYWGQGTSVTVSS VL: DIQMTQASSSLSASLGDRVTISCKTSQDISNYLNWYQQKPDGTFKLLIHYTSRLHSGVPSRFSGSGSGSDYSLTISNLEREDIATYFCQQGNSLPYTFGGGTKLEMK"
  observation.type: "EC50"
  value: 0.55
- binder: "F4.107.12 (antibody, human IgG1, V domains shown, human-murine chimeric antibody, human IgG1) VH: EVQLQQSGPELVKPGASVKMSCKASGYTFTSYVLHWVRQKPGQGLEWIGYFNPYNDGTEYNEKFKGKAILTSDKSSSTAYMELNSLTSEDSAVYYCVGGTYYYGSSYPFAYWGQGTLVTVST VL: DVVMTQISLSLPVSLGDQASISCRSSQSLIHSNGNTYLQWYLQKPGQSPKLLIYKVSNRLSGVPDRFSGSGSGTDFTLKISRVEAEDLGVYFCSQSTHVPYTFGGGTKLEIK"
  observation.type: "EC50"
  value: 0.6
- binder: "F4.15.9 (antibody, human IgG1, V domains shown, human-murine chimeric antibody, human IgG1) VH: QVQLQQSGPELVKPGASVKISCKASGYAFSSSWMNWLKQRPGQGLEWIGRIYPGDGDTNYNGKFKGKATLTADESSSTAYMQLSSLTSVDSAVYFCARGITTIITIAWFASWGQGTLVTVSA VL: QIVLSQSPTILSASPGEKVTMTCRASSSVSYMHWYQQKPGSSPKPWIYATSNLASGVPPRFSGSGSGTSYSLTISRVGAEDAATYYCQQWSSDPWTFGGGTKLEIK"
  observation.type: "EC50"
  value: 0.71

# return recorded EC50 for input F3.121.4 (antibody, human IgG1, V domains shown, human-murine chimeric antibody, human IgG1) VH: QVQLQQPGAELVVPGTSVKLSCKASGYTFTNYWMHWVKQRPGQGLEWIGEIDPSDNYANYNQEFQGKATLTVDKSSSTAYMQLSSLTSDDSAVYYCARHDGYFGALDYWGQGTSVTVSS VL: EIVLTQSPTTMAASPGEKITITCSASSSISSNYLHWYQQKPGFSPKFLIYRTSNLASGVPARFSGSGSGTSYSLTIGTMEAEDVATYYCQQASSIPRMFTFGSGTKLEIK
0.31

# return recorded EC50 for input F4.191.1 (antibody, human IgG1, V domains shown, human-murine chimeric antibody, human IgG1) VH: QVQLQQPGAELVRPGASVKLSCKASGYTFTSYWINWVKQRPGQGLEWIGNIHPSDSYTNYNQKFKDKATLTVDKSSSTAYMQFSSPTSEDSAVYYCTREDYYYGSNYDAMDYWGQGTSVTVSS VL: DIVMTQSHKFMSTSVGDRVNITCKASQDVGSSVAWYQQKPGQSPKLLIYWASTRHAGVPDRFTGSGSGADFTLTISNVQSEDLADYFCQQYSTYPLTFGAGTKLELK
1.89

# return recorded EC50 for input F5.11.2 (antibody, human IgG1, V domains shown, human-murine chimeric antibody, human IgG1) VH: EVQLVESGGDLVKPGGSLKLSCAASGFTFSSYGMSWVRQTPDKRLEWVATISHGGSYTHYPDSVKGRFTISRDNAKNTLYLQMNSLKSEDTAMYYCVRLPITTVEAPYFFDYWGQGTTLTVSS VL: DIQMTQTTSSLSASLGDRVTISCRASQDIRNYLNWYQQKPDGTVKLLIYYTSILHSGVPSRFSGSGSGTDYSLTINNLEQEDVATYFCQQGNTLYTFGGGTEVELR
23.4

# return recorded EC50 for input F3.113.16 (antibody, human IgG1, V domains shown, human-murine chimeric antibody, human IgG1) VH: QVQLQQPGAELVKPGASVKLSCKASGYTFTNYWMQWVKQRPGQGLEWIGEIDPSDSYINYNQKFKGKATLTADTSSSTAYMQLSSLTYEDSAVYYCARPVTVPWYFDVWGTGTTVTVSS VL: EIVLTQSPTTMAASPGEKITITCSATSSISSNYLHWYQQKPGFSPKLLIYRTSNLASGVPARFSGSGSGTSYSLTIGTMEAEDVATYYCQQGSAIPRIFTFGSGTKLEIK
0.96

# return recorded EC50 for input F4.180.1 (antibody, human IgG1, V domains shown, human-murine chimeric antibody, human IgG1) VH: EVQLQQSAPELVKPGASVKMSCKTSGYTFTENIIHWVKQTHGKSLEWIGGINPDNGGTSYHQKFKGRTTLTIDKSSSTAYMELRSLTSDDSAVFFCARQAPLYWYFDIWGAGTTVTVSS VL: DIVLTQSPASLAVSLGQRATISCRASESVDSYGNSLMHWFQQKPGQPPRLLIYRASNLESGIPARFSGSGSRTDFTLTITPVEADDVATYYCQQSNEDPWTFGGGTKLEIK
0.96

# return recorded EC50 for input F4.4.6 (antibody, human IgG1, V domains shown, human-murine chimeric antibody, human IgG1) VH: QVQLQQSGAELARPGASVKLSCKASGYTFTSYWMQWVKQRPGQGLEWIGAIYPGDGDSRYTQKFKGKATLTADKSSSTAYMQLSSLASEDSAVYYCARSTTTVLGNNFEYWGQGTTLTVSS VL: QIVLTQSPAIMSALPGEKVTMTCSASSSVSSMHWYQQKSGTSPKRWIYDTSKLASGVPARFSGSGSGTSYSLTISSMEAEDAATYYCQQWSSNPWTFGGGTKLEIK
0.56

# return recorded EC50 for input F4.37.6 (antibody, human IgG1, V domains shown, human-murine chimeric antibody, human IgG1) VH: QVQLQQSGAELARPGASVKLSCKASGYTFTSFWMQWLKQRPGQGLEWIGTIYPGDGDTRYTQKFKGKATLTADKSSNTAYMQLSSLASEDSAVYYCARGALSNYGGFAYWGQGTLVTVSA VL: NIVLTQSPASLAVSLGQRATISCRASESVDSYGHSFMHWYQQKPGQPPKLLIYLASNLESGVPARFSGSGSRTDFTLTIDPVEADDAATYYCQQNNEDPWTFGGGTKLEIK
0.51
